# TGT: T1, Human Id1: Histidine (human, UniProt P41134 1-155, limits assumed)
# T1 construct: Fusion protein made in E. coli from vector pGW07; also called h-Id1: his; not shown: His tag
# T1 sequence (looked up): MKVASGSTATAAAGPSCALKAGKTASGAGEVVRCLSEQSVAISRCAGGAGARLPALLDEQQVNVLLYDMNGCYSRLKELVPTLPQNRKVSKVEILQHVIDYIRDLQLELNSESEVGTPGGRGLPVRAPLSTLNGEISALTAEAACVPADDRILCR
# EXPERIMENT_DESCRIPTION: ELISA, Ab 0.500 µg/ml
# Experimental: The rabbit monoclonal anti-human Id3 (clone #3-3) and the rabbit monoclonal anti-mouse/human Id3 (clones #6-1, 16-1, 17-3, and 42-1) produced in Example 6 were tested reactivity against the following antigens: mouse Id1:His, human Id1:His, mouse Id2:His, human Id2:His, mouse Id3:His, human Id3:His, mouse Id4:His, human Id4:His and GST. 1. […]
ENDPOINT: A450 (A450)
Give bare numbers, in A450.

BINDER | A450 (A450)
rabbit monoclonal anti-human Id3, clone #BCH-4/#3-3 (antibody, V domains shown, Rabbit IgG from a rabbit hybridoma; also called h Id3 MoAb 3-3) VH: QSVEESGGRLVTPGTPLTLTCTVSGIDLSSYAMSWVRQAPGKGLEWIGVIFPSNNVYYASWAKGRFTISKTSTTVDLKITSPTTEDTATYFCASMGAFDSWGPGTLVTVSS VL: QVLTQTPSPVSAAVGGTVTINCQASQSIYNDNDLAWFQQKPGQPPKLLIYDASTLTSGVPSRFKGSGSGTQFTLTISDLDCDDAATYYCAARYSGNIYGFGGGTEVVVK | 0.048

Proceeding to the next binder to report its A450.
Task item: Could you share which A450 value was measured for rabbit monoclonal anti-mouse/human Id3, clone #BCH-4/#6-1 (antibody, V domains shown, Rabbit IgG from a rabbit hybridoma; also called m/h Id3 MoAb 6-1) VH: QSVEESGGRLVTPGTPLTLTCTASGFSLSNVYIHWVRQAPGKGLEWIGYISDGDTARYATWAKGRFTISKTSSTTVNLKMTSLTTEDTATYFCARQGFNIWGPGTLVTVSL VL: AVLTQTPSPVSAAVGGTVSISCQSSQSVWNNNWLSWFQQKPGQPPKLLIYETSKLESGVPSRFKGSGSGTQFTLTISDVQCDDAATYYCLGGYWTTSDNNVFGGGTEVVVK ?
Reply: 0.048

These entries and their values trace back to patent US20070178531A1.
